# Tested on: human salivary sediment
# test protocol: pH response of salivary sediment incubated with individual amino acids, with or without 28 mM urea
# Assay type: cell-based
# assay context: 120 mM amino acid + 28 mM urea, 21 hours, 37° C.
# Source text: To obtain human salivary sediment for performance of the experiments described herein, paraffin wax (4.02 g) was chewed by human subjects (including some subjects 70+ years of age, where oral alkalinity is commonly more prevalent) to stimulate the flow of saliva. […]
Record form. Attribute: pH of salivary sediment. Fill in for each entry.
Give bare numbers.

CC(C)[C@H](N)C(=O)O = 8.70
NCC(=O)O = 8.55
N[C@@H](Cc1c[nH]cn1)C(=O)O = 8.22

Here is another molecule to look at.
Any idea what pH of salivary sediment was measured for C[C@H](N)C(=O)O ?
8.67

====

Record form. Attribute: pH of salivary sediment. Fill in for each entry.
# Test system: human salivary sediment
# test protocol: pH response of salivary sediment incubated with individual amino acids, with or without 28 mM urea
# Type: cell-based
# assay context: 9 mM amino acid, without urea, 21 hours (overnight), 37° C.
Numbers only.

// each molecule listed below needs its pH of salivary sediment
1. CSCC[C@H](N)C(=O)O
2. N[C@@H](CCC(=O)O)C(=O)O

6.20
6.70

Parameter requested: pH of salivary sediment. Apply to each item below.
1. N[C@@H](CS)C(=O)O
2. N[C@@H](CC(=O)O)C(=O)O
3. NC(=O)CC[C@H](N)C(=O)O
4. N=C(N)NCCC[C@H](N)C(=O)O
5. N[C@@H](Cc1c[nH]c2ccccc12)C(=O)O
6. CC(C)C[C@H](N)C(=O)O
7. N[C@@H](CSSC[C@H](N)C(=O)O)C(=O)O

[6.60, 7.00, 6.25, 7.97, 6.20, 6.40, 6.35]

Look at each molecule and report its pH of salivary sediment.
1. CC[C@H](C)[C@H](N)C(=O)O
2. NC(=O)C[C@H](N)C(=O)O

1. 6.62
2. 7.35

====

# System: human salivary sediment
# test protocol: pH response of salivary sediment incubated with individual amino acids, with or without 28 mM urea
# Format: cell-based
# assay context: 9 mM amino acid, without urea, 21 hours (overnight), 37° C.
measured parameter: pH of salivary sediment

C[C@@H](O)[C@H](N)C(=O)O = remained about unchanged
O=C(O)[C@@H]1CCCN1 = remained about unchanged
